B1: Chromodomain-helicase-DNA-binding protein 3, residues 374 to 426; numbered along this chain, Q12873 (parent)
chain: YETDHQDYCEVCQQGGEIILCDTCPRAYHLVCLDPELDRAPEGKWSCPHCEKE

Variants of: B1
method description: abundance fitness (aPCA) (normalised: wild type 0, dead -1); higher = more abundant; growth selection in yeast, the domain comes from the species named
condition notes: Homo sapiens
Each entry falls into one class according to its abundance fitness; the ranges are low (below -0.2), mid (-0.2 to below -0.1), high (-0.1 or more)

| mutations | classification |
| --- | --- |
| R26M | mid |
| P35G | high |
| E36Y | low |
| L37C | mid |
| C9L | low |
| L20R | high |
| Q13A | low |
| C32P | low |
| C32A | low |
| V31D | mid |
| T3E | high |
| I19H | mid |

Data provenance: the Human Domainome abundance scans (Beltran et al. 2025)
